test: recombinant barcode read abundance after kanamycin selection (control-corrected) (log10(CPM+1)); higher = more efficient recombination; sequences stand for … in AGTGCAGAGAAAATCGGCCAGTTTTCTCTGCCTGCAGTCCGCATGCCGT…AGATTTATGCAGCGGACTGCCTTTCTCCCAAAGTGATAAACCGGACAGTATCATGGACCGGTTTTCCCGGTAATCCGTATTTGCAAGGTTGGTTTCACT; site = the 11-nt target
Classification field: yes (1) = recombinant barcode read abundance (log10) at or over 0.2; no (0) = recombinant barcode read abundance (log10) under 0.2.

>  <primary-sequence>
CTGTGAGCTTGGGTTCTAACCTGTTGCAG (site CTGTGAGCTCT)

>  <category>
yes (1)

$$$$
>  <primary-sequence>
AGTATAACTTGGGTTCTAACCTGTTGCTG (site GTGTACCCTGT)

>  <category>
no (0)

$$$$
>  <primary-sequence>
CTAAGGGCTTGGGTTCTAACCTGTTGCCA (site CTAAGTGCTTG)

>  <category>
yes (1)

$$$$
>  <primary-sequence>
GCTCAGCCTTGGGTTCTAACCTGTTGCCT (site GCTCAGTCTAG)

>  <category>
no (0)

$$$$
>  <primary-sequence>
TGTTAGCCTTGGGTTCTAACCTGTTGCCA (site TGTTAGCCTTG)

>  <category>
no (0)

$$$$

* * *

assay: recombinant UMI read abundance after kanamycin selection (control-corrected) (log10(CPM+1)); higher = more efficient recombination; extreme values may be limits of the assay; sequences stand for … in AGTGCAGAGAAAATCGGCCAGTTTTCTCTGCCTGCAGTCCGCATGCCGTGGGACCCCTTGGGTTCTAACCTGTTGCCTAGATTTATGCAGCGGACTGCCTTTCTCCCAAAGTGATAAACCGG…AGGTTGGTTTCACT; site = the 11-nt donor
Classification field: Satisfied = recombinant UMI read abundance (log10) at or over 0.009; Not satisfied = recombinant UMI read abundance (log10) under 0.009.

>  <primary-sequence>
TCCACCGCATGGACCGGTTTTCCCGGTAATCCGTATTTGTG (site TCCACCGCTCG)

>  <category>
Not satisfied

$$$$
>  <primary-sequence>
GTGCATGCATGGACCGGTTTTCCCGGTAATCCGTATTTGGG (site GTGCATGCTAC)

>  <category>
Not satisfied

$$$$
>  <primary-sequence>
TACTCGACATGGACCGGTTTTCCCGGTAATCCGTATTTGCT (site TACTGGACTAG)

>  <category>
Not satisfied

$$$$
>  <primary-sequence>
AGTCCATCATGGACCGGTTTTCCCGGTAATCCGTATTTGGG (site AGTCCATCTCC)

>  <category>
Not satisfied

$$$$
>  <primary-sequence>
ACAGTCTCATGGACCGGTTTTCCCGGTAATCCGTATTTGCT (site ACAGTATCTTG)

>  <category>
Not satisfied

$$$$
>  <primary-sequence>
CAGCTATCATGGACCGGTTTTCCCGGTAATCCGTATTTGTC (site CAGCTATCTGA)

>  <category>
Satisfied

$$$$
>  <primary-sequence>
CCCATATCATGGACCGGTTTTCCCGGTAATCCGTATTTGTA (site CCCATATCTAA)

>  <category>
Not satisfied

$$$$
>  <primary-sequence>
ATTCGTGCATGGACCGGTTTTCCCGGTAATCCGTATTTGAT (site ATTCGTGCTAT)

>  <category>
Satisfied

$$$$
>  <primary-sequence>
GTACTCGCATGGACCGGTTTTCCCGGTAATCCGTATTTGCG (site GTAGTCGCTCG)

>  <category>
Not satisfied

$$$$
>  <primary-sequence>
CAATCCTCATGGACCGGTTTTCCCGGTAATCCGTATTTGCC (site CAGTCCTCTGG)

>  <category>
Not satisfied

$$$$
>  <primary-sequence>
ATACCACCATGGACCGGTTTTCCCGGTAATCCGTATTTGGT (site ATACCACCTAC)

>  <category>
Satisfied

$$$$
>  <primary-sequence>
CAAGCGCCATGGACCGGTTTTCCCGGTAATCCGTATTTGCG (site CAAGCGCCTCG)

>  <category>
Satisfied

$$$$
>  <primary-sequence>
TGCCTAGCATGGACCGGTTTTCCCGGTAATCCGTATTTGTT (site TGCCTAGCTAA)

>  <category>
Satisfied

$$$$
>  <primary-sequence>
TCGTTTACATGGACCGGTTTTCCCGGTAATCCGTATTTGCT (site GCGTTTACTAG)

>  <category>
Not satisfied

$$$$
>  <primary-sequence>
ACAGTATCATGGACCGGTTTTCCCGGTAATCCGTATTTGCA (site ACCGTATCTAG)

>  <category>
Satisfied

$$$$
>  <primary-sequence>
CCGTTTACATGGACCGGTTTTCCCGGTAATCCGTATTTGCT (site CCGTTTACTAT)

>  <category>
Not satisfied

$$$$
>  <primary-sequence>
TAGCCTTCATGGACCGGTTTTCCCGGTAATCCGTATTTGGG (site TAGCCTTCTAC)

>  <category>
Not satisfied

$$$$
>  <primary-sequence>
CCATGGGCATGGACCGGTTTTCCCGGTAATCCGTATTTGAG (site CCATGGGCTCT)

>  <category>
Satisfied

$$$$

* * *

assay: recombinant barcode read abundance after kanamycin selection (control-corrected) (log10(CPM+1)); higher = more efficient recombination; sequences stand for … in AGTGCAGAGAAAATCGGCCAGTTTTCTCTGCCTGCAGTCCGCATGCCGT…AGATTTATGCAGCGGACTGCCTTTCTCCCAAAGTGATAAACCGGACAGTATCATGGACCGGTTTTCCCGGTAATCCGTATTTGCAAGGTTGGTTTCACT; site = the 11-nt target
Measured recombinant barcode read abundance (log10) values are reported for all entries that follow.
measured-quantity: recombinant barcode read abundance (log10)

>  <primary-sequence>
CTGCAGTCTTGGGTTCTAACCTGTTGCCA (site CTGCAGTCTTG)

>  <endpoint-result>
0.18

$$$$
>  <primary-sequence>
CTAAGAGCTTGGGTTCTAACCTGTTGCCA (site CTAAGTGCTTG)

>  <endpoint-result>
0.116

$$$$
>  <primary-sequence>
CTAGACACTTGGGTTCTAACCTGTTGCCT (site CTTGACACTAG)

>  <endpoint-result>
0.512

$$$$
>  <primary-sequence>
CTAGGCTCTTGGGTTCTAACCTGTTGCGG (site CTACGCTCTTC)

>  <endpoint-result>
0.095

$$$$
>  <primary-sequence>
TTGGACGCTTGGGTTCTAACCTGTTGCCT (site TTGGGCGCTAG)

>  <endpoint-result>
0.838

$$$$

* * *

assay: recombinant barcode read abundance after kanamycin selection (control-corrected) (log10(CPM+1)); higher = more efficient recombination; sequences stand for … in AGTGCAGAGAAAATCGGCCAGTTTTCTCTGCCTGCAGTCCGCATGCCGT…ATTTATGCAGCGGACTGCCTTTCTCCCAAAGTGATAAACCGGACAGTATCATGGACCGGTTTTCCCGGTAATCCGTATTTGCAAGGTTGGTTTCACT; site = the 11-nt target
measured-quantity: recombinant barcode read abundance (log10)

>  <primary-sequence>
TTATAAACATGGGTTCTAACCTGTTGCCTTG [TTATAAACTAG_LTGcore_CA_RTGcore_CA] (site TTATAAACTAG) (LTG core: CA, RTG core: CA)

>  <endpoint-result>
0.0537

$$$$
>  <primary-sequence>
CATATTAAGTGGGTTCTAACCTGTTGCCTCT [CATATTACTAG_LTGcore_AG_RTGcore_AG] (site CATATTACTAG) (LTG core: AG, RTG core: AG)

>  <endpoint-result>
0.0293

$$$$
>  <primary-sequence>
CGCGCCCCTTGGGTTCTAACCTGTTGCGGTT [CGCGCCCCTCC_LTGcore_CT_RTGcore_AA] (site CGCGCCCCTCC) (LTG core: CT, RTG core: AA)

>  <endpoint-result>
0.146

$$$$
>  <primary-sequence>
CGCGCCCGCTGGGTTCTAACCTGTTGCGGGC [CGCGCCCCTCC_LTGcore_GC_RTGcore_GC] (site CGCGCCCCTCC) (LTG core: GC, RTG core: GC)

>  <endpoint-result>
0.552

$$$$
>  <primary-sequence>
ATGTCCCACTGGGTTCTAACCTGTTGCTCAG [ATGTCCCCTGA_LTGcore_AC_RTGcore_CT] (site ATGTCCCCTGA) (LTG core: AC, RTG core: CT)

>  <endpoint-result>
0.172

$$$$
>  <primary-sequence>
GAGGCCTGATGGGTTCTAACCTGTTGCCATC [GAGGCCTCTTG_LTGcore_GA_RTGcore_GA] (site GAGGCCTCTTG) (LTG core: GA, RTG core: GA)

>  <endpoint-result>
0.231

$$$$
>  <primary-sequence>
CGGTCCCCTTGGGTTCTAACCTGTTGCCACG [CGGTCCCCTTG_LTGcore_CT_RTGcore_CG] (site CGGTCCCCTTG) (LTG core: CT, RTG core: CG)

>  <endpoint-result>
0.0795

$$$$
>  <primary-sequence>
TCGCGACAATGGGTTCTAACCTGTTGCCGTT [TCGCGACCTCG_LTGcore_AA_RTGcore_AA] (site TCGCGACCTCG) (LTG core: AA, RTG core: AA)

>  <endpoint-result>
0.176

$$$$
>  <primary-sequence>
CGGTCCCCGTGGGTTCTAACCTGTTGCCACG [CGGTCCCCTTG_LTGcore_CG_RTGcore_CG] (site CGGTCCCCTTG) (LTG core: CG, RTG core: CG)

>  <endpoint-result>
0.342

$$$$
>  <primary-sequence>
AGGCCTCGTTGGGTTCTAACCTGTTGCCTAC [AGGCCTCCTAG_LTGcore_GT_RTGcore_GT] (site AGGCCTCCTAG) (LTG core: GT, RTG core: GT)

>  <endpoint-result>
0.0637

$$$$
>  <primary-sequence>
AGGCGGTCATGGGTTCTAACCTGTTGCTTTG [AGGCGGTCTAA_LTGcore_CA_RTGcore_CA] (site AGGCGGTCTAA) (LTG core: CA, RTG core: CA)

>  <endpoint-result>
0.128

$$$$
